Tgt: human SGLT1 (Homo sapiens (Human), UniProt P13866)
Sequence (P13866 whole entry): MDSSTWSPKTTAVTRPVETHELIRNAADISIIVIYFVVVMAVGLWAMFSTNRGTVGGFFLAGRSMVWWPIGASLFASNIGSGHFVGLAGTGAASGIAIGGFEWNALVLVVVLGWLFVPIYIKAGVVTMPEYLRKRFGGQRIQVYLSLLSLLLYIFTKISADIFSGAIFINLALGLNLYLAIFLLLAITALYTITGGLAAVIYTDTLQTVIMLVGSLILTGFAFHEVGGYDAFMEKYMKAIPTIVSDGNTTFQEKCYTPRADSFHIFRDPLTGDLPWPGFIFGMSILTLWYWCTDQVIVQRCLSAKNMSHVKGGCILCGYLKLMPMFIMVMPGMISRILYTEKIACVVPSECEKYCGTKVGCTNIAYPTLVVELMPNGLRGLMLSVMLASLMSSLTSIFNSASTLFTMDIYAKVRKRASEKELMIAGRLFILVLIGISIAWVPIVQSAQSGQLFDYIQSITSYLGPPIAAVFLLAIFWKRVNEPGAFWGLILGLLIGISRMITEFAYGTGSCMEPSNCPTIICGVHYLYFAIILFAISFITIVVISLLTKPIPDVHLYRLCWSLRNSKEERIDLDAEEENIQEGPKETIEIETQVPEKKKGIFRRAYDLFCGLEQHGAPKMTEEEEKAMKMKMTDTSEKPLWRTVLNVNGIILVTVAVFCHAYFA
Procedure Text: SGLT1 inhibitory activity: 14C-AMG uptake into CHO-K1 cell line stably expressing human SGLT1
Type: cell-based
Measurement Setup: 14C-AMG uptake, CHO-K1 cells expressing human SGLT1
pIC50: −log10 of the molar value.
Endpoint: pIC50

CCCc1cccc(-c2cc(NC(=O)C3CNC(=O)C3CCO)nn2-c2ccccc2)c1 (racemic) [Example 115]; 7.39

[P] CCCc1cccc(-c2cc(NC(=O)C3CNC(=O)C3)nn2CC(C)C)c1 (racemic) [Example 18]
[Q] CCC(F)(F)c1cccc(-c2cc(NC(=O)[C@H]3CNC(=O)C3)nn2-c2ccccc2)c1 [Example 72]
[R] O=C1C[C@@H](C(=O)Nc2cc(-c3cccc(OC(F)(F)F)c3)n(-c3ccccc3Cl)n2)CN1 [Example 130]
List items by pIC50 in falling order. Please reply with the labels ordered as requested. Many thanks.
R, Q, P
(R: 8.89, Q: 8.33, P: 7.51)
